Target: hTSLP-His (human, UniProt Q969D9 29-159, limits assumed)
Assay: cell-based or functional assay
property_name: IC50 [pM], STAT5 phosphorylation inhibition in MUTZ5 cells

**Query** Reported IC50 [pM], STAT5 phosphorylation inhibition in MUTZ5 cells, binder BDG38.129 (antibody, V domains shown, IgG1) VH: QMQLVESGGGVVQPGRSLTLSCAASGFEFRTYGMHWVRQAPGKGLEWVGVIWDDGSNTHYADSVKGRFTITRDNSKNTLNLQMNSLRVEDTAVYYCARAPQWYLTAEAFDLWGQGTMVTVSS VL: SYILTQPPSVSVAPGQTATITCGGNLIGAKLVHWYQQKPGQAPVLVIYDDSDRPSRIPERFSGSNIGNTATLTISDVEEGDEADYYCQVWDYSSDHMVFGGGTKLTVL : ____
**Result** 0.676 pM

**Query** Reported IC50 [pM], STAT5 phosphorylation inhibition in MUTZ5 cells, binder BDG38.075 (antibody, V domains shown, IgG1) VH: QMQLVESGGGVVQPGRSLRLSCAASGFAFRTYGMHWVRQAPGKGLEWVAVIWYDGSATHYADSVKGRFTITRDNSKNTLNLQMNSLRAEDTAVYYCVRAPQWYLSAEAFDLWGQGTMVTVSS VL: SYVLTQPPSVSVAPGETATITCGGNLIGAYLVHWYQQKPGQAPVLVIYDDVDRPARIPERFSGSNSGNTATLTISRVEAGDEADYYCQVWDHDTNTMVFGGGTKLTVL : ____
**Result** 43.9 pM

**Query** Reported IC50 [pM], STAT5 phosphorylation inhibition in MUTZ5 cells, binder BDG38.112 (antibody, V domains shown, IgG1) VH: QMQLVESGGGVVQPGRSLRLSCAASGFEFRTYGMHWVRQAPGKGLEWLGVIWYDGSNTHYADSVKGRFTITRDNSKNTLNLQMNSLRAEDTAVYYCVRAPQWYLTAEAFDLWGQGTMVTVSS VL: SYILTQPPSVSVAPGQTATITCGGNLIGARLVHWYQQKPGQAPVLVIYDDSDRPSRIPERFSGSNIGNTATLTIERVEEGDEADYYCQVWDYSSDTYVFGGGTKLTVL : ____
**Result** 11400 pM

**Query** Reported IC50 [pM], STAT5 phosphorylation inhibition in MUTZ5 cells, binder BDG38.107 (antibody, V domains shown, IgG1) VH: QMQLVESGGGVVQPGRSLTLSCAASGFEFRTYGMHWVRQAPGKGLEWVGVIWYDGSNTHYADSVKGRFTITRDNSKNTLNLQMNSLRAEDTAVYYCVRAPQWYLTAEAFDLWGQGTMVTVSS VL: SYILTQPPSVSVAPGQTATITCGGNLIGARLVHWYQQKPGQAPVLVIYDDSDRPSRIPERFSGSNIGNTATLTIERVEEGDEADYYCQVWDYSSDSYVFGGGTKLTVL : ____
**Result** 0.508 pM

**Query** Reported IC50 [pM], STAT5 phosphorylation inhibition in MUTZ5 cells, binder BDG38.078 (antibody, V domains shown, IgG1) VH: QMQLVESGGGVVQPGRSLRLSCAASGFEFRTYGMHWVRQAPGKGLEWLGVIWYDGSNTHYADSVKGRFTITRDNSKNTLNLQMNSLRVEDTAVYYCVRAPQWYLTAEAFDLWGQGTMVTVSS VL: SYILTQPPSVSVAPGETATITCGGNLIGARLVHWYQQKPGQAPVLVIYDDSDRPSRIPERFSGSNIGNTATLTIERVEAGDEADYYCQVWDYYSDHMVFGGGTKLTVL : ____
**Result** 338 pM

**Query** Reported IC50 [pM], STAT5 phosphorylation inhibition in MUTZ5 cells, binder BDG38.140 (antibody, V domains shown, IgG1) VH: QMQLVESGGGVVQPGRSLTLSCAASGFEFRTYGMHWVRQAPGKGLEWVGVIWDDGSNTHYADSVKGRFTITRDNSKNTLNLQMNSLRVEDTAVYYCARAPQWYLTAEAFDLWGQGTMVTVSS VL: SYILTQPPSVSVAPGETATITCGGNLIGAKLVHWYQQKPGQAPVLVIYDDSDRPSRIPERFSGSNIGNTATLTIEDVEAGDEADYYCQVWDYSANHMVFGGGTKLTVL : ____
**Result** 2.21 pM
